These entries and their values trace back to patent US20220411388A1.

# Target system: acid ceramidase (hACR) (Homo sapiens)
# Construct: expressed in transfected cells
# Sequence (Q13510 22-395): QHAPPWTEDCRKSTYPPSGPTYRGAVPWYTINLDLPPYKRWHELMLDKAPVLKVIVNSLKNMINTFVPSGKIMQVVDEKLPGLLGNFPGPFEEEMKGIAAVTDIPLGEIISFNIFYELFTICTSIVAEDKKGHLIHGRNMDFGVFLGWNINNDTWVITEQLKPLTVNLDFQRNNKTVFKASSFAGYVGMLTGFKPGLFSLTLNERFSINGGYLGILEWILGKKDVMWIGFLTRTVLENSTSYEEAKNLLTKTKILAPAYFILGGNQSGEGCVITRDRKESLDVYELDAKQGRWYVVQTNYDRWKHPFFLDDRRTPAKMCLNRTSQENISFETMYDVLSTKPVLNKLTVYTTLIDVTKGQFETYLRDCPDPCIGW
# Assay explanation: Acid ceramidase inhibition, biochemical fluorescent assay with cell lysates overexpressing acid ceramidase (substrate Rbm14-12)
# Details: cell lysate, 1 hr preincubation at RT, pH 4.5, Rbm14-12 6.3 μM; read-out: IC50 hACR
pIC50: −log10 of the molar value.
Observation type: pIC50

Any idea what pIC50 was measured for COc1nccn1C(=O)NCCCCC1(C(F)(F)F)CC1 [Example 138] ?
> 6.70

Any idea what pIC50 was measured for COc1nc(C2CCOC2)cn1C(=O)NCCC(C)C (stereo not drawn) [Example 85] ?
6.00 to 6.70

Any idea what pIC50 was measured for CC(C)(C)c1cn(C(=O)NCCc2ccccc2)cn1 [Example 3] ?
> 6.70

Any idea what pIC50 was measured for COc1nc(C)cn1C(=O)NCC#CCC1(C(F)(F)F)CC1 [Example 182] ?
> 6.70

Any idea what pIC50 was measured for CN1CCC(c2cn(C(=O)NCCC#Cc3ccccc3)cn2)CC1 [Example 204] ?
> 6.70

Any idea what pIC50 was measured for Cc1nc(-c2ccccc2)cn1C(=O)NCCc1ccccc1 [Example 7] ?
> 6.70

Any idea what pIC50 was measured for COc1nc(-c2ccccc2)cn1C(=O)NCCCc1ccccc1 [Example 12] ?
6.00 to 6.70

Any idea what pIC50 was measured for COc1nc(-c2ccccc2)cn1C(=O)NC1CC1 [Example 140] ?
< 6.00

Any idea what pIC50 was measured for O=C(NCCCC1(C(F)(F)F)CC1)n1cnc(-c2cccnc2N2CCCCC2)c1 [Example 175] ?
> 6.70

Any idea what pIC50 was measured for CC(C)Oc1nc(Cl)cn1C(=O)NCCCC(F)(F)F [Example 187] ?
6.00 to 6.70

Any idea what pIC50 was measured for Cc1nc(-c2cccnc2)cn1C(=O)NCCC(C)C [Example 49] ?
> 6.70

Any idea what pIC50 was measured for COc1nccn1C(=O)NCCCC1(C(F)(F)F)CC1 [Example 137] ?
> 6.70

Any idea what pIC50 was measured for Cc1cn(C(=O)NC2CC2)c(OC2CCC(F)(F)CC2)n1 [Example 183] ?
6.00 to 6.70

Any idea what pIC50 was measured for COc1nc(-c2coc(C(C)(C)C)n2)cn1C(=O)NCCC1CC1 [Example 103] ?
< 6.00

Any idea what pIC50 was measured for O=C(NCCOc1ccccc1)n1cnc(-c2cccnc2)c1 [Example 17] ?
> 6.70

Any idea what pIC50 was measured for COc1nc(Cl)cn1C(=O)NCCCC(F)(F)F [Example 168] ?
> 6.70

Any idea what pIC50 was measured for CC(C)CCNC(=O)n1cnc(-c2cncs2)c1 [Example 51] ?
6.00 to 6.70

Any idea what pIC50 was measured for COc1nc(C2CCOC2)cn1C(=O)NC1CC1 (stereo not drawn) [Example 128] ?
< 6.00

Any idea what pIC50 was measured for O=C(NCCC1CC1)n1cnc(-c2ccns2)c1 [Example 72] ?
6.00 to 6.70

Any idea what pIC50 was measured for COc1nc(-c2cccnc2N2CCN(C)CC2)cn1C(=O)NCC#CC(C)C [Example 194] ?
< 6.00

Any idea what pIC50 was measured for Cc1cn(C(=O)NCCc2ccccc2)c(OCCN2CCN(C)CC2)n1 [Example 190] ?
> 6.70
